study_target: isocitrate lyase (ICL) (Candida albicans, UniProt Q9P8Q7)
Construct: gene ICL1; purified recombinant ICL
Sequence (Q9P8Q7 whole entry): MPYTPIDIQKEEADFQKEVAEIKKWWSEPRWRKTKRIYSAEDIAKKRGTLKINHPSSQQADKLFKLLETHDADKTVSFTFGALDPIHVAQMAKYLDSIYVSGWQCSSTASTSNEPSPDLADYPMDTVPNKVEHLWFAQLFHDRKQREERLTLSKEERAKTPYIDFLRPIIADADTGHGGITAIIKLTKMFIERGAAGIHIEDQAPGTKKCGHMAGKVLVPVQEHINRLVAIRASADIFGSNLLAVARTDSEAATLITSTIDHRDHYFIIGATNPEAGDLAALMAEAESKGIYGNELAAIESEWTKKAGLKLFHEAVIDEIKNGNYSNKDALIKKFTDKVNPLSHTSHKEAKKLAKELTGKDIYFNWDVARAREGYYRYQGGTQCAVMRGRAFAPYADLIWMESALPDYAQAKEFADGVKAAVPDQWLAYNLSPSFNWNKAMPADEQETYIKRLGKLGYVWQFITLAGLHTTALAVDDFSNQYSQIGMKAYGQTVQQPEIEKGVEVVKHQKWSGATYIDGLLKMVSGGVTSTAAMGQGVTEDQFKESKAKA
assay_comment: enzyme assay, absorbance at […] nm (phenylhydrazine); Lineweaver-Burk and Dixon plots
Format: biochemical
metric_name: IC50 (µM)

• CS[C@]12CC[C@H](O)[C@H]1C(=O)NC2=O [compound 1, bacillimide] = 44.2
